Origin of values: patent US20250163104A1

# Subject of test: human PD-1 / PD-L1-Ig binding on Jurkat cell line over-expressing human PD-1 (Jurkat-PD-1) (Homo sapiens, UniProt Q15116)
# Construct: expressed in transfected cells; host or cells: Jurkat
# Sequence (Q15116 25-288): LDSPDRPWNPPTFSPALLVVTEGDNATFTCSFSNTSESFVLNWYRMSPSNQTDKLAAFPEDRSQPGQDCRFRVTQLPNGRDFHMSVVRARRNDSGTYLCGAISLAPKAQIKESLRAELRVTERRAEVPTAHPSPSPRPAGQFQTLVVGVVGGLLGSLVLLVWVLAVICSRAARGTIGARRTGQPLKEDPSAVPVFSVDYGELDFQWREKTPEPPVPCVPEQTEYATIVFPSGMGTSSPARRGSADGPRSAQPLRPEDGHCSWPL
# Assay explanation: Jurkat-PD-1 Cell Binding High-Content Screening Assay (CBA)
# Format: cell-based
# Experimental parameters: Jurkat-PD-1 cells, PE-labeled PD-L1-Ig 20 nM final; read-out: Jurkat HPD1_PDL1 IC50
Where a SMILES comes first, the peptide text is derived from it. Bridges are numbered along the chain shown (N, C = ends). [ ]: non-standard residue; d: D form. Bip = N[C@@H](Cc1ccc(-c2ccccc2)cc1)C(=O)O; Orn = NCCC[C@H](N)C(=O)O; Dab = NCC[C@H](N)C(=O)O
Observed property: IC50

Memo: CC(C)C[C@@H]1NC(=O)[C@H](CCCCN)NC(=O)[C@@H](CC(C)C)NC(=O)[C@H](CCCN)NC(=O)[C@H](Cc2cnc[nH]2)NC(=O)[C@H](Cc2ccc(-c3ccccc3)cc2)NC(=O)[C@H](C(C)C)NC(=O)[C@H](Cc2c[nH]c3ccccc23)NC(=O)[C@H](CC(=O)O)NC(=O)[C@H](Cc2ccc(O)cc2)NC(=O)[C@H](CC(N)=O)NC(=O)CSC[C@@H](C(=O)N[C@@H](C)C(N)=O)NC(=O)[C@H]([C@@H](C)O)NC(=O)[C@H](C(C)C)NC1=O [Compound 1133] ({CH2CO}-NYDWV[Bip]H[Orn][dL]KLVTCA-NH2; thioether N-14) , reported IC50: 0.0331 µM

Memo: CCC(C)[C@@H]1NC(=O)[C@H](Cc2ccc(-c3ccccc3)cc2)NC(=O)[C@H](C(C)C)NC(=O)[C@H](Cc2cccc(C)c2)NC(=O)[C@H](CC(=O)O)NC(=O)[C@H](Cc2ccc(-c3cccc(C(=O)O)c3)cc2)NC(=O)[C@H](CC(N)=O)NC(=O)CSC[C@@H](C(=O)N[C@@H](C)C(N)=O)NC(=O)[C@H]([C@@H](C)O)NC(=O)[C@H](C(C)C)NC(=O)[C@H](CC2CCCCC2)NC(=O)[C@H](CCN)NC(=O)[C@@H](CC(C)C)NC(=O)[C@H](CCCN)NC1=O (stereo partly shown) , reported IC50: 0.025 µM

Memo: CCCC[C@@H]1NC(=O)[C@H](CCN)NC(=O)[C@@H](CC(C)C)NC(=O)[C@H](CCCN)NC(=O)[C@H]([C@@H](C)CC)NC(=O)[C@H](Cc2ccc(-c3ccccc3)cc2)NC(=O)[C@H](C(C)C)NC(=O)[C@H](Cc2cccc(C)c2)NC(=O)[C@H](CC(=O)O)NC(=O)[C@H](Cc2ccc(C(=O)O)cc2)NC(=O)[C@H](CN)NC(=O)CSC[C@@H](C(=O)N[C@@H](C)C(N)=O)NC(=O)[C@H]([C@@H](C)O)NC(=O)[C@H](C(C)C)NC1=O , reported IC50: 0.0474 µM

Memo: CC(C)C[C@@H]1NC(=O)[C@H](Cc2c[nH]c3ccccc23)NC(=O)[C@H](CC(=O)O)NC(=O)[C@H](Cc2ccc(O)cc2)NC(=O)[C@H](Cc2ccccc2)NC(=O)CSC[C@@H](C(=O)N[C@@H](C)C(N)=O)NC(=O)[C@H](CO)NC(=O)[C@H](C(C)C)NC(=O)[C@H](CC(C)C)NC(=O)[C@H](CC(N)=O)NC(=O)[C@@H](C)NC(=O)[C@H](CCN)NC(=O)[C@H](C(C)C)NC(=O)[C@H](Cc2ccc(-c3ccccc3)cc2)NC1=O [Compound 1100] ({CH2CO}-FYDWL[Bip]V[Dab][dA]NLVSCA-NH2; thioether N-14) , reported IC50: 0.0414 µM
